Test target: WIZ protein (HiBit-WIZ fusion protein) (Homo sapiens, UniProt O95785+Q96SW2)
Construct: expressed in transfected cells
Sequence (O95785 whole entry, the tested form may be a part): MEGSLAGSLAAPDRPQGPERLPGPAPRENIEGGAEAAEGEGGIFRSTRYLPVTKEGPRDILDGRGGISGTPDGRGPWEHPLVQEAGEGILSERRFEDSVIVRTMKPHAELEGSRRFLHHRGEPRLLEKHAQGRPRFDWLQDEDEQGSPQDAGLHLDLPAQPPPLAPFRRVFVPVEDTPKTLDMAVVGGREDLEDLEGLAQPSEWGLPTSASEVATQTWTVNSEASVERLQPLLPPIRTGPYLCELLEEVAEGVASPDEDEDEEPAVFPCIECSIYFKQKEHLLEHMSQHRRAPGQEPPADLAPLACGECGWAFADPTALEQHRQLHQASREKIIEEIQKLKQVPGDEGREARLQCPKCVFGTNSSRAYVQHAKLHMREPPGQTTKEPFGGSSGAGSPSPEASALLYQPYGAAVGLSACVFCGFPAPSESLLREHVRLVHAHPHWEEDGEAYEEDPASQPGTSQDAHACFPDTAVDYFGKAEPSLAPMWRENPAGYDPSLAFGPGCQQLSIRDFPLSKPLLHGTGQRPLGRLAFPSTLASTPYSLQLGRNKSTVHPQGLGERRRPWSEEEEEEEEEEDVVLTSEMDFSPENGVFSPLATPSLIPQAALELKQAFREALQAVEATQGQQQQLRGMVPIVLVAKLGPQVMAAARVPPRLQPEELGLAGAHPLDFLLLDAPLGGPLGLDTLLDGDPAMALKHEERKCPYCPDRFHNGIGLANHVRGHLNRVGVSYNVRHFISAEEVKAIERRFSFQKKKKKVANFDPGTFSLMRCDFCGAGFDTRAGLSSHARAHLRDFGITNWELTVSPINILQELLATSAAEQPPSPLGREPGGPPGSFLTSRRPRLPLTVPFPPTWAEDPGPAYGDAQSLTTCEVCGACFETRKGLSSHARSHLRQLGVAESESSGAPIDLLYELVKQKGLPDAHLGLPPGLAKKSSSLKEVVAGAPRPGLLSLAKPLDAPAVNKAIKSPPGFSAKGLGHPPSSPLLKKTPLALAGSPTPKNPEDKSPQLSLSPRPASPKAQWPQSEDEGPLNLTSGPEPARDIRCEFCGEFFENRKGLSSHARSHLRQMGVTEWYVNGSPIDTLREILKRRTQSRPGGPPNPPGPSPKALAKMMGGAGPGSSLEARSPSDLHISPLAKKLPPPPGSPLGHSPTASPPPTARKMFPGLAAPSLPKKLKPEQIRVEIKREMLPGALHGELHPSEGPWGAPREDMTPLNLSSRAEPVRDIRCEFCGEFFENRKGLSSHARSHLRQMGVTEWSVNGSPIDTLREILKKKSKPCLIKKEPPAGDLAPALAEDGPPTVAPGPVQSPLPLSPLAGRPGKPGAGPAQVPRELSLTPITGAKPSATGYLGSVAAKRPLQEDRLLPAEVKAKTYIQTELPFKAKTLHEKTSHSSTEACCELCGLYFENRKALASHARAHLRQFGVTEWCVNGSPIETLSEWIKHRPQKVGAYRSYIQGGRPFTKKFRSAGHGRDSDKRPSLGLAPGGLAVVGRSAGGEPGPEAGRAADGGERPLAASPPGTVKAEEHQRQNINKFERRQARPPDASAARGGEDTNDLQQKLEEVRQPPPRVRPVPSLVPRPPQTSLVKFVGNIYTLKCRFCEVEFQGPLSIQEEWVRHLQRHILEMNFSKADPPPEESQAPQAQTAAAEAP
Sequence (Q96SW2 whole entry, the tested form may be a part): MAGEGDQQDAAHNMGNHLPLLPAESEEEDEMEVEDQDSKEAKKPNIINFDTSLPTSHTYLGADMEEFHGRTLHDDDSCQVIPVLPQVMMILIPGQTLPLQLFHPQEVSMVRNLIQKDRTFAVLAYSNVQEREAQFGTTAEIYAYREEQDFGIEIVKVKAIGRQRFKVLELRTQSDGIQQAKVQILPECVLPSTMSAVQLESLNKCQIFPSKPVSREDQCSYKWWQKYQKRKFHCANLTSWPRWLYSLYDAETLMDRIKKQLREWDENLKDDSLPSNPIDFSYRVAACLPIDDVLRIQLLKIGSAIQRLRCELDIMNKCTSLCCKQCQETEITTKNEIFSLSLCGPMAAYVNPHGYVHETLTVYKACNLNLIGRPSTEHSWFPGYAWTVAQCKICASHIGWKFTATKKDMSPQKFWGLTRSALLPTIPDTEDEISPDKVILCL
Sequence (Q16531 whole entry partner, the tested form may be a part): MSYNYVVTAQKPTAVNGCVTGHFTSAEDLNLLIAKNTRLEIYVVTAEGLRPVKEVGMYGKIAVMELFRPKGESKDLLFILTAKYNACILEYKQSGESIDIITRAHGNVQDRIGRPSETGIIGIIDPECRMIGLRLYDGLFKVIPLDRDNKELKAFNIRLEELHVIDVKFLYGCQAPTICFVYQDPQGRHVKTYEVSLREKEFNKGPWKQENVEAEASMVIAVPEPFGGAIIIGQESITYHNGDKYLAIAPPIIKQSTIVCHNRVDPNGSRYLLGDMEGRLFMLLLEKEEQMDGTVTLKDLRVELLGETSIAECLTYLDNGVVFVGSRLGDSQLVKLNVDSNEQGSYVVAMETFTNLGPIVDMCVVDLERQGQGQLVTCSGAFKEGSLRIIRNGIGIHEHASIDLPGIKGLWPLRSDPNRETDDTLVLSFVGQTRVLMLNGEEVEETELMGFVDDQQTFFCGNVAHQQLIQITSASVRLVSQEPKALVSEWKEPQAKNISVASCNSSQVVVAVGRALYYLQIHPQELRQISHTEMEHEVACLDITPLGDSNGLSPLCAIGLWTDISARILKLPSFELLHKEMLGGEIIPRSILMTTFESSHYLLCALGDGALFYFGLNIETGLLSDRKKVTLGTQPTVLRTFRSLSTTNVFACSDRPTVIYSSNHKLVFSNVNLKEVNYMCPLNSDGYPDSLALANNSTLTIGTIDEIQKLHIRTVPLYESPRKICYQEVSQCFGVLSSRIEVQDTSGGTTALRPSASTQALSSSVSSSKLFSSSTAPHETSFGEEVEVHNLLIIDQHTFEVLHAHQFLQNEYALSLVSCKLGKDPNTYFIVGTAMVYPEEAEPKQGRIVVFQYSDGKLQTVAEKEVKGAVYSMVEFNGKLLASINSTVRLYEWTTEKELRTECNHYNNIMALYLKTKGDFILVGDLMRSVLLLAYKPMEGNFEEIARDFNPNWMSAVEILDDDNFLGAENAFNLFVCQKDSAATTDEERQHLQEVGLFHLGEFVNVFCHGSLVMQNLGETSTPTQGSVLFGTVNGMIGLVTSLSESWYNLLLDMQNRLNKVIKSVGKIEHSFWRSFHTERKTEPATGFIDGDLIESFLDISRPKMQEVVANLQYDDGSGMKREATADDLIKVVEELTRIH
Experiment description: Quantification of WIZ protein levels in HiBit tag fusion protein assay (WIZ HiBit assay in 293T cells)
Type: cell-based
Experimental conditions: HEK-293T, DMSO-normalized, curve-fitted percentage of WIZ-HiBit remaining at 25 uM; 293T cells; read-out: WIZ Amax
Friendly reminder: remaining activity at 25 µM below 20% is TRUE, at or above is FALSE.

Example results:
C[C@H]1C[C@H](Cc2ccn3ncc(N4CCC(=O)NC4=O)c3c2)CCN1CC1CCC(F)(F)CC1 [Example 141] | TRUE
C[C@H]1C[C@H](Cc2ccn3ncc(N4CCC(=O)NC4=O)c3c2)CCN1CC1CCCC1 [Example 144] | TRUE

## Input State whether 20% exceeds remaining activity at 25 µM recorded for O=C1CCN(c2cnn3ccc(CC4CCN(CC5CC(F)(F)C5)CC4)cc23)C(=O)N1 [Example 32] .
## Output TRUE

## Input I'd appreciate it if you could check whether C[C@H]1C[C@H](Cc2ccn3ncc(N4CCC(=O)NC4=O)c3c2)CCN1C(=O)C1CCN(C)CC1 [Example 290] has remaining activity at 25 µM smaller than 20%.
## Output FALSE

## Input In plain terms, does CC(C)C(C)N1CCC(Cc2ccn3ncc(N4CCC(=O)NC4=O)c3c2)CC1 (centres unmarked) [Example 70] come in under 20% for remaining activity at 25 µM?
## Output TRUE

## Input # TODO verify remaining activity at 25 µM < 20% strictly for this compound: O=C1CCN(c2cnn3ccc(CC4CCN(CCO)CC4)cc23)C(=O)N1 [Example 35]
## Output FALSE

## Input Please indicate whether the reported remaining activity at 25 µM of O=C1CCN(c2cnn3ccc(CC4CCN(C(=O)CCc5ccccc5)CC4)cc23)C(=O)N1 [Example 102] is strictly below 20%.
## Output FALSE

## Input Below 20% on remaining activity at 25 µM? Entry C[C@H]1C[C@H](Cc2ccn3ncc(N4CCC(=O)NC4=O)c3c2)CCN1C[C@H]1CCC(F)(F)C1 [Example 307]
## Output TRUE

## Input A record lists O=C1CCN(c2cnn3ccc(CC4CCN(CCC5CCC5)CC4)cc23)C(=O)N1 [Example 13] . Is its remaining activity at 25 µM below 20%?
## Output TRUE

## Input Input C[C@H]1C[C@H](Cc2ccn3ncc(-n4cc(F)c(=O)[nH]c4=O)c3c2)CCN1CC1CCC(F)(F)CC1 [Example 350] ; condition: remaining activity at 25 µM strictly below 20%. Does it hold?
## Output TRUE

## Input Find out if reported remaining activity at 25 µM for CC(C)(C)OC(=O)N1CCC(Cc2ccn3ncc(N4CCC(=O)NC4=O)c3c2)CC1 [Example 97] is less than 20%
## Output FALSE

## Input Bench note: check whether O=C1CCN(c2cnn3ccc(CC4CNC4)cc23)C(=O)N1 [Example 133] shows remaining activity at 25 µM below 20%
## Output FALSE

## Input Identify whether the compound O=C1CCN(c2cnn3ccc(CN4CCN(CC56CC7CC(CC(C7)C5)C6)CC4)cc23)C(=O)N1 [Example 194] records remaining activity at 25 µM below 20%.
## Output TRUE

## Input Please state whether remaining activity at 25 µM is below 20% for C[C@H]1C[C@H](Cc2ccn3ncc(N4CCC(=O)NC4=O)c3c2)CCN1S(=O)(=O)N(C)C [Example 292]
## Output TRUE

## Input Is it true that remaining activity at 25 µM reported for O=C1CCN(c2cnn3ccc(CC4CCN(C(=O)Oc5ccccc5)CC4)cc23)C(=O)N1 [Example 94] is less than 20%?
## Output FALSE

## Input Would you kindly verify if remaining activity at 25 µM of CC(C)(F)CN1CCC(Cc2ccn3ncc(N4CCC(=O)NC4=O)c3c2)CC1 [Example 39] is strictly less than 20%?
## Output FALSE

## Input Identify whether the compound O=C1CCN(c2cnn3ccc(CN4CCN(CC5CCOCC5)CC4)cc23)C(=O)N1 [Example 160] records remaining activity at 25 µM below 20%.
## Output TRUE

## Input Input CC(CN1CCC(Cc2ccn3ncc(N4CCC(=O)NC4=O)c3c2)CC1)C1CCCCC1 (centres unmarked) [Example 10] ; condition: remaining activity at 25 µM strictly below 20%. Does it hold?
## Output TRUE

---

Quick list: remaining activity at 25 µM per entry.
Test target: WIZ protein (HiBit-WIZ fusion protein) (Homo sapiens, UniProt O95785+Q96SW2)
Construct: expressed in transfected cells
Experiment description: Quantification of WIZ protein levels in HiBit tag fusion protein assay (WIZ HiBit assay in 293T cells)
Format: cell-based
Experimental conditions: HEK-293T, DMSO-normalized, curve-fitted percentage of WIZ-HiBit remaining at 25 uM; 293T cells; read-out: WIZ Amax
Give the value, in units of %, as a plain number.

As a guide, the following entries are already answered.
Cc1cn(-c2cnn3ccc(CN4CCN(CC5CC5)[C@@H](C)C4)cc23)c(=O)[nH]c1=O | 16
O=C1CCN(c2cnn3ccc(CN4CCN(Cc5ccc(F)cc5)CC4)cc23)C(=O)N1 | 44
CO[C@H]1C[C@@H](CN2CC[C@@H](Cc3ccn4ncc(N5CCC(=O)NC5=O)c4c3)C[C@@H]2C)C1 | 20
Cc1cncc(CN2CCC(Cc3ccn4ncc(N5CCC(=O)NC5=O)c4c3)CC2)c1 | 28
O=C1CCN(c2cnn3ccc(CN4CCN(Cc5cccnc5)CC4)cc23)C(=O)N1 | 50
C[C@H]1CN(Cc2ccn3ncc(N4CCC(=O)NC4=O)c3c2)CCN1CC1CC2(COC2)C1 | 18
CC(C)S(=O)(=O)N1CCC(Cc2ccn3ncc(N4CCC(=O)NC4=O)c3c2)CC1 | 17
COc1cn(-c2cnn3ccc(C[C@@H]4CCN(CC5CCC(F)(F)CC5)[C@@H](C)C4)cc23)c(=O)[nH]c1=O | 30
CC(C)(O)CN1CCC(Cc2ccn3ncc(N4CCC(=O)NC4=O)c3c2)CC1 | 32
CCCC(CCC)N1CCC(Cc2ccn3ncc(N4CCC(=O)NC4=O)c3c2)CC1 | 16

`O=C1CCN(c2cnn3ccc(CN4CCN(Cc5cccc(F)c5)CC4)cc23)C(=O)N1` yielded remaining activity at 25 µM of 47

response.value for `O=C1CCN(c2cnn3ccc(CC4CCN(CC5CC5)CC4)cc23)C(=O)N1` (field: remaining activity at 25 µM) = 11

Reported remaining activity at 25 µM of C[C@H]1C[C@@H](Cc2ccn3ncc(N4CCC(=O)NC4=O)c3c2)CCN1CC1CCCCC1 (single isomer, unassigned) : 15

Value of measured remaining activity at 25 µM for the entry `O=C1CCN(c2cnn3ccc(CN4CCN(CC5CCCCC5)[C@@H](C(F)F)C4)cc23)C(=O)N1` : 100

Value of remaining activity at 25 µM reported for the molecule C=C(C)CN1CCC(Cc2ccn3ncc(N4CCC(=O)NC4=O)c3c2)CC1 [Example 39a] is 32

Looking up `CC(C)CN1CC[C@@H](Cc2ccn3ncc(-n4ccc(=O)[nH]c4=O)c3c2)C[C@@H]1C` , I found its remaining activity at 25 µM recorded as 13

Record C[C@H]1CN(Cc2ccn3ncc(N4CCC(=O)NC4=O)c3c2)CCN1CC1CCCO1 (some centres unmarked) . Reported remaining activity at 25 µM: 26

Record summary for `CC(C)CCN1CCN(Cc2ccn3ncc(N4CCC(=O)NC4=O)c3c2)C[C@@H]1C` : reported remaining activity at 25 µM = 16

Query `CC(C)CN1CCN(Cc2ccn3ncc(N4CCC(=O)NC4=O)c3c2)C(=O)C1` yields remaining activity at 25 µM of 100

Measured remaining activity at 25 µM of `C[C@H]1C[C@H](Cc2ccn3ncc(N4CCC(=O)NC4=O)c3c2)CCN1CCC(F)(F)F` : 15

Lookup result for `CO[C@H]1C[C@H](CN2CC[C@@H](Cc3ccn4ncc(N5CCC(=O)NC5=O)c4c3)C[C@@H]2C)C1` ; measured remaining activity at 25 µM: 16

Looking up `O=C1CCN(c2cnn3ccc(CC4CCN(Cc5ccccc5F)CC4)cc23)C(=O)N1` , I found its remaining activity at 25 µM recorded as 29

The recorded remaining activity at 25 µM for `O=C1CCN(c2cnn3ccc(CC4CCN(Cc5cscn5)CC4)cc23)C(=O)N1` is 46

remaining activity at 25 µM measured on `CCC(CC)N1CCC(Cc2ccn3ncc(N4CCC(=O)NC4=O)c3c2)CC1` = 21

Lab note: measured remaining activity at 25 µM of `O=C1CCN(c2cnn3ccc(CN4CCN(CC(F)(F)C(F)F)CC4)cc23)C(=O)N1` was 58

Documented remaining activity at 25 µM of `CC(C)CCN1CCC(Cc2ccn3ncc(N4CCC(=O)NC4=O)c3c2)CC1` : 19

Per the records, this molecule ( `CC(C)CN1[C@@H](C)CN(Cc2ccn3ncc(N4CCC(=O)NC4=O)c3c2)C[C@@H]1C` ) has remaining activity at 25 µM equal to 39

Documented remaining activity at 25 µM of `CS(=O)(=O)N1CCC(Cc2ccn3ncc(N4CCC(=O)NC4=O)c3c2)CC1` : 23
